Would you mind telling me the reported Emax of each entry?
TARGET SYSTEM: Urotensin-2 receptor (Rattus norvegicus) (UniProt P49684)
Sequence (P49684 whole entry): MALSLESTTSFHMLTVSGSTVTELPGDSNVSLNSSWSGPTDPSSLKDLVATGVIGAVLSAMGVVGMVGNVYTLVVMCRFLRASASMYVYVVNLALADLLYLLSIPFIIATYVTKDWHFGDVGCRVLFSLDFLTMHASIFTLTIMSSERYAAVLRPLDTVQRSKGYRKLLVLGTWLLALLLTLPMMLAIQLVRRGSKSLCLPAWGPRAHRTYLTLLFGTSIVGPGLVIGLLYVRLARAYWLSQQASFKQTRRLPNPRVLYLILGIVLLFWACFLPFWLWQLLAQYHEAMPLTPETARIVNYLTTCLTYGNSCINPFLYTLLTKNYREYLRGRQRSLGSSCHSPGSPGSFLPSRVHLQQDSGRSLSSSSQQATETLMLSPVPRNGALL
ASSAY EXPLANATION: Agonist activity at urotensin 2 receptor in Sprague-Dawley rat thoracic aortic ring assessed as induction of contraction relative to urotensin-2
Bridge positions count the residues as written; N and C are the ends. Square brackets hold non-standard residues; d marks the D form. Peptide text beside a SMILES is read from it. NMeW = CN[C@@H](Cc1c[nH]c2ccccc12)C(=O)O; NMeC = CN[C@@H](CS)C(=O)O
Kindly answer with a numeric value in %, unit omitted.

Q. For the compound `CC(C)[C@H](NC(=O)[C@@H]1CSSC[C@H](NC(=O)[C@H](C)N)C(=O)N[C@@H](Cc2ccccc2)C(=O)N[C@@H](Cc2c[nH]c3ccccc23)C(=O)N[C@@H](CCCCN)C(=O)N[C@@H](Cc2ccc(O)cc2)C(=O)N1)C(=O)O` , report Emax.
A. 116

Q. Answer with reported Emax of CC(C)[C@H](NC(=O)[C@@H]1CSSC[C@H](NC(=O)[C@@H](N)CC(=O)O)C(=O)N[C@@H](Cc2ccccc2)C(=O)N(C)[C@@H](Cc2c[nH]c3ccccc23)C(=O)N[C@@H](CCCCN)C(=O)N[C@@H](Cc2ccc(O)cc2)C(=O)N1)C(=O)O (H-DCF[NMeW]KYCV-OH; disulfide 2-7)
A. 105

Q. Output measured Emax for this item: CC(C)[C@H](NC(=O)[C@@H]1CSSC[C@H](N(C)C(=O)[C@@H](N)CC(=O)O)C(=O)N[C@@H](Cc2ccccc2)C(=O)N[C@@H](Cc2c[nH]c3ccccc23)C(=O)N[C@@H](CCCCN)C(=O)N[C@@H](Cc2ccc(O)cc2)C(=O)N1)C(=O)O (H-D[NMeC]FWKYCV-OH; disulfide 2-7)
A. 101

----------
TARGET SYSTEM: Urotensin-2 receptor (Homo sapiens, UniProt Q9UKP6)
Sequence (Q9UKP6 whole entry): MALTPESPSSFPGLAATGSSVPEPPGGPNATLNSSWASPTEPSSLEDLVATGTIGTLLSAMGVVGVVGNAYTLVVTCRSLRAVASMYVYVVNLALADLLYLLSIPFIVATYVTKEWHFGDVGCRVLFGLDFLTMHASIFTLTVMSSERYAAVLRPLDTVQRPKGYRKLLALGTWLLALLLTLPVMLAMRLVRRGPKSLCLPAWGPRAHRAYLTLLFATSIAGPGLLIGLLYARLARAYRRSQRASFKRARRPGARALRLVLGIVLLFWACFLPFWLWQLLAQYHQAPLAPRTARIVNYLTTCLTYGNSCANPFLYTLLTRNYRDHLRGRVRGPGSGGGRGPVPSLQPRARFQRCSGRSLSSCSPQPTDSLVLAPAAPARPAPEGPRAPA
Bridge positions count the residues as written; N and C are the ends. Peptide text beside a SMILES is read from it.
Task for the reader: assign each of the following compounds its reported pKi.
On this scale, pKi is minus log10 of a concentration expressed in M (mol/L).

Q. Give reported pKi value for `CC(C)[C@H](NC(=O)[C@@H]1CSSC[C@H](NC(=O)[C@H](C)N)C(=O)N[C@@H](Cc2ccccc2)C(=O)N[C@@H](Cc2c[nH]c3ccccc23)C(=O)N(C)[C@@H](CCCCN)C(=O)N[C@@H](Cc2ccc(O)cc2)C(=O)N1)C(=O)O`
A. 5.82

Q. Provide pKi value for the following compound: `CC(C)[C@H](NC(=O)[C@@H]1CSSC[C@H](NC(=O)[C@H](CC(=O)O)NC(=O)[C@@H]2CCCN2C(=O)[C@@H](NC(=O)[C@@H](N)CCC(=O)O)[C@@H](C)O)C(=O)N[C@@H](Cc2ccccc2)C(=O)N[C@@H](Cc2c[nH]c3ccccc23)C(=O)N[C@@H](CCCCN)C(=O)N[C@@H](Cc2ccc(O)cc2)C(=O)N1C)C(=O)O`
A. 7.64

Q. Name the recorded pKi of the item CC(C)[C@H](NC(=O)[C@@H]1CSSC[C@H](NC(=O)[C@@H](N)CC(=O)O)C(=O)N[C@@H](Cc2ccccc2)C(=O)N[C@@H](Cc2c[nH]c3ccccc23)C(=O)N[C@@H](CCCCN)C(=O)N[C@@H](Cc2ccc(O)cc2)C(=O)N1)C(=O)O (H-DCFWKYCV-OH; disulfide 2-7) in your answer.
A. 8.34
